biological target: FGFR3 (UniProt P22607); assay: phosphorylation enrichment, bacterial display (enrichment ratio); higher = better substrate or ligand; peptides without Tyr show the background
Sequence (P22607 whole entry, looked up): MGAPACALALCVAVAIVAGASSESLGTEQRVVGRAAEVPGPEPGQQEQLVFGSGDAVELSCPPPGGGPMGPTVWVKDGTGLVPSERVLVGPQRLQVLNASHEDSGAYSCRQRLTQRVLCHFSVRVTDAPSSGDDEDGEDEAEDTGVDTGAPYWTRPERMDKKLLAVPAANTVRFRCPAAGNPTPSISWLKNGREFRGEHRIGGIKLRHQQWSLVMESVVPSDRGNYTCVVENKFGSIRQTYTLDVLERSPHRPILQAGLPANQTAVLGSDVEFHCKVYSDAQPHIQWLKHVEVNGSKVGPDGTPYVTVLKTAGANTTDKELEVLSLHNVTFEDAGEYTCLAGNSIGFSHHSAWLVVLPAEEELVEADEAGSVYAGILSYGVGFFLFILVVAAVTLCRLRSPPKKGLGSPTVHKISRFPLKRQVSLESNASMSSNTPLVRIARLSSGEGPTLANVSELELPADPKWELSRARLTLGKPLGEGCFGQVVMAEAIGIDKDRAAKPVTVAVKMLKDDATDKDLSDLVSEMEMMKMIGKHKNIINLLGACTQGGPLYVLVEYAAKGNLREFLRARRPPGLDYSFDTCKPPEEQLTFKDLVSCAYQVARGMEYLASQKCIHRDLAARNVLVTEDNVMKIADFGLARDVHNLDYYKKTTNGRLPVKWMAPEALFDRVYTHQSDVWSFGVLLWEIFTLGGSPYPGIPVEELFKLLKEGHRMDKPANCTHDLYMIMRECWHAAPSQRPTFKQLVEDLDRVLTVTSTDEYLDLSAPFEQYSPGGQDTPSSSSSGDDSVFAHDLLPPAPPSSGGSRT
Category scheme (phosphorylation enrichment): low bracket = under 0.7, middle bracket = from 0.7 up to 0.9, high bracket = 0.9 and over

Would you please look over these solved cases?
| macromolecule-sequence | label-class |
| --- | --- |
| FPSLPYSPVSS [CAMKK2_Y128_C123Y_YF] | low bracket |
| QHNPEYVQQAT [LRRC7_Y1058_S1063T] | low bracket |
| CLLHCYFSQIR [MCM3AP_Y873] | middle bracket |
| QMWLKYSQSDL [SMC1A_Y714_R711W] | high bracket |
| KGPNVCKKTVN [REV3L_Y1156_Y1156C] | middle bracket |
| RAYRHYLLKQK [SCN2A_Y1919_R1918H] | low bracket |
| KLVQLYDVCTK [BTK_Y461_G462D] | middle bracket |
| FDDDDYDTDFV [BLM_Y296] | middle bracket |
| SIKDKYVTAFY [KCNH2_Y611_L615F] | low bracket |
| GIVKAYFVRAR [AIPL1_Y267_YF] | low bracket |

Qu. Band of IGNGYYFRVFS [MYBPC3_Y1136] ?
Ans. high bracket

Qu. Band of TDLAFYLVCKG [ASL_Y376_R379C_YF] ?
Ans. high bracket

Qu. Band of NRLTDYYEPLL [BBS10_Y536] ?
Ans. high bracket

Qu. Band of DFAIVYGTIIL [GPR179_Y460_G455D] ?
Ans. high bracket

Qu. Band of RRNEIYEIKVD [LGR5_Y387_H383R] ?
Ans. middle bracket

Qu. Band of CTTIHYHFMCN [TP53_Y234_N235H_YF] ?
Ans. middle bracket

---

SH2 binding enrichment values for the sequences below.
target: Grb2 SH2 (UniProt P62993); experiment: SH2 binding enrichment of the phosphorylated peptide, bacterial display (enrichment ratio); higher = better substrate or ligand; peptides without Tyr show the background
Sequence (P62993 whole entry, looked up): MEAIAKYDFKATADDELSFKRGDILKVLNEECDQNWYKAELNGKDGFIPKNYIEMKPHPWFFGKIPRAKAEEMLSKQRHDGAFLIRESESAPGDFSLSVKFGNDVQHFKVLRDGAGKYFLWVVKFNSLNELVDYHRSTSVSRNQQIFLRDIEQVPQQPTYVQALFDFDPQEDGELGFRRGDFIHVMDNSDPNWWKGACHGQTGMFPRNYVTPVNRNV
Output spec: single numeric token, no unit.

| macromolecule-sequence | SH2 binding enrichment |
| --- | --- |
| QRNEEYCLLDS [ITK_Y198_R193Q] | 0.924 |
| IFLADCRIMEG [ALOX12B_Y318_Y318C_YF] | 0.886 |

Kindly review the next sequence as well.
Qu. So what SH2 binding enrichment did SLQAHYDTPRS [DOK7_Y405_R402Q] get with Grb2 SH2 (UniProt P62993)?
Ans. 0.916

---

test system: AncSZ; experiment: phosphorylation enrichment, bacterial display (enrichment ratio); higher = better substrate or ligand; peptides without Tyr show the background
phosphorylation enrichment values for the sequences below.
Output spec: single numeric token, no unit.

| macromolecule-sequence | phosphorylation enrichment |
| --- | --- |
| SNNFIYTTLGV [FAM83B_Y639_K640T_YF] | 0.899 |
| DRLAVYIDRVS [LMNA_Y45_R50S] | 0.881 |

Kindly review the next sequence as well.
Qu. So what phosphorylation enrichment did ANVKWYRSGRE get with AncSZ?
Ans. 0.875

---

target: EPHB1 (UniProt P54762); experiment: phosphorylation enrichment, bacterial display (enrichment ratio); higher = better substrate or ligand; peptides without Tyr show the background
Sequence (P54762 whole entry, looked up): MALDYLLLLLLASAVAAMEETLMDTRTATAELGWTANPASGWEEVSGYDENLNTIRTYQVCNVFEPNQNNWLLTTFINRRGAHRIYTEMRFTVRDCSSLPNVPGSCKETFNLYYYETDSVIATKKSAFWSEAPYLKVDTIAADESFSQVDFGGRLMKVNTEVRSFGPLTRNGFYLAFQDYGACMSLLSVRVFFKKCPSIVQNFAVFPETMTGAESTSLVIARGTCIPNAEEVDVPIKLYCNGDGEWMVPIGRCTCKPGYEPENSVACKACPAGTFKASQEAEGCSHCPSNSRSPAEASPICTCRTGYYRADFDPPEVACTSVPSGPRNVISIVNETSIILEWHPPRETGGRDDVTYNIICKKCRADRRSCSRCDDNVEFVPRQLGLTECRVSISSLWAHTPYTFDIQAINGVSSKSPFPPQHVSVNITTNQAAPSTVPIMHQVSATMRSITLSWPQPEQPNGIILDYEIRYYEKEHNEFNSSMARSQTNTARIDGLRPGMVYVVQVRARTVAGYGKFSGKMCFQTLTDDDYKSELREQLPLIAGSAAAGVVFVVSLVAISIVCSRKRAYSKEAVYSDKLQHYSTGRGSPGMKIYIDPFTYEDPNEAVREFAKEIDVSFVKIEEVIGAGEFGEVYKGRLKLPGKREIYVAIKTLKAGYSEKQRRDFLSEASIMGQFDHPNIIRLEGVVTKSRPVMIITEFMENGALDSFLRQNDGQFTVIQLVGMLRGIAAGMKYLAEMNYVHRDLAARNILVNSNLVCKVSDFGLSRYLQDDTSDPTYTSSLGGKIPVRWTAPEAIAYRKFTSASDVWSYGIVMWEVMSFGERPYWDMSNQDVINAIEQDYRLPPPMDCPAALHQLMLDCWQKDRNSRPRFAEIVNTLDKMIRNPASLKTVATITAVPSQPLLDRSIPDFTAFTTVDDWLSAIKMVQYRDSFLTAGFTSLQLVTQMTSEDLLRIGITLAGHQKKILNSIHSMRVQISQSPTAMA
endpoint-name: phosphorylation enrichment

# annotated cases, reported phosphorylation enrichment shown
| macromolecule-sequence | phosphorylation enrichment |
| --- | --- |
| RASDFYSQQMA [GBP6_Y334_A331S_YF] | 0.708 |
| PRARTYCFKQE [KLHDC9_Y175_S171R_YF] | 0.345 |
| EEGNPYFSGAR [MCCC2_Y520_S523G_YF] | 0.516 |
| VNTTLYEKFTY [TEK_Y1108] | 1.92 |
| PPGRSYSPCDF [TNS1_Y793_Y796C_YF] | 0.895 |
| PLDNLYAEPAV [PRPS1_Y146_V142L] | 9.6 |

Kindly review the next sequence as well.
Qu. So what phosphorylation enrichment did RAYRHYLLKQK [SCN2A_Y1919_R1918H] get with EPHB1 (UniProt P54762)?
Ans. 0.334

---

biological target: FGFR1 (UniProt P11362); experiment: phosphorylation enrichment, bacterial display (enrichment ratio); higher = better substrate or ligand; peptides without Tyr show the background
Sequence (P11362 whole entry, looked up): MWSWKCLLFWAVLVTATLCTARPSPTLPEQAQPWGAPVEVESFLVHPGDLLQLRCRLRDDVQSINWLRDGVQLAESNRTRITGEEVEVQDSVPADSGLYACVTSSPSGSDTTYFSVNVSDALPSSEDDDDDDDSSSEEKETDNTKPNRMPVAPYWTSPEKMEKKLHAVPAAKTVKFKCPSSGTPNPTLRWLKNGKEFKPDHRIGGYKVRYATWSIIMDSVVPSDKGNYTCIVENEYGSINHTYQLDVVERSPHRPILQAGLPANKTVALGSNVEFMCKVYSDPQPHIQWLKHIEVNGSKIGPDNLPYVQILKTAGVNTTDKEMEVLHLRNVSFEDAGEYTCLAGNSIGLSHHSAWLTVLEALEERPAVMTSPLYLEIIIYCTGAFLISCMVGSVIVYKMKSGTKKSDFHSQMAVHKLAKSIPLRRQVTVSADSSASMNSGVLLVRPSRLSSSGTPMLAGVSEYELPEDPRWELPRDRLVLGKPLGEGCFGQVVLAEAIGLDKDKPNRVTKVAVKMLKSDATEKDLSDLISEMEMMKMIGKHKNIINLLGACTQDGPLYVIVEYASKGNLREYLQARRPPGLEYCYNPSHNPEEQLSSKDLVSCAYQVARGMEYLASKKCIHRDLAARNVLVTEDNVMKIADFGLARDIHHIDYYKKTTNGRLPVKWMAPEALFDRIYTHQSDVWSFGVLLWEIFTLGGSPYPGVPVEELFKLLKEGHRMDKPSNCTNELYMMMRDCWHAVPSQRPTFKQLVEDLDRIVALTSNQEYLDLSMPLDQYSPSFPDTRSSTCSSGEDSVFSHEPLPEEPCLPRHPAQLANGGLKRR
Tick Y if phosphorylation enrichment is 0.6 or greater. Tick N if phosphorylation enrichment is less than 0.6.

Would you please look over these solved cases?
| macromolecule-sequence | system-under-test | label-class |
| --- | --- | --- |
| ILTLKYPIKHG [ACTA1_Y71_E74K] | FGFR1 (UniProt P11362) | N |
| PQGVRYTFTID [DCX_Y103_I104T_YF] | FGFR1 (UniProt P11362) | N |
| DEEPPYRGPFC [SASH1_Y551] | FGFR1 (UniProt P11362) | N |
| FQKNSYSEELR [LMNA_Y211_I210S] | FGFR1 (UniProt P11362) | N |
| DFAIVYGTIIL [GPR179_Y460_G455D] | FGFR1 (UniProt P11362) | N |
| RGKDSYETSQL [SPP1_Y225] | FGFR1 (UniProt P11362) | Y |
| AGGTRYRFVSQ [UCN3_Y95_R91G_YF] | FGFR1 (UniProt P11362) | N |
| SSSGGYGGGYG [KRT19_Y61_A60G] | FGFR1 (UniProt P11362) | N |

Qu. Could you tell me if the measured phosphorylation enrichment of KNNSIYVLANI [VNN1_Y134_V136L] reaches 0.6 or more?
Ans. Y

Qu. Could you tell me if the measured phosphorylation enrichment of LKGQVYILVRE [ASS1_Y359_G362V] reaches 0.6 or more?
Ans. N

Qu. Could you tell me if the measured phosphorylation enrichment of RAIDMYLMGCF [GABRB2_Y308_K303R] reaches 0.6 or more?
Ans. Y

Qu. Could you tell me if the measured phosphorylation enrichment of SEPDLYYDPRG [PKP1_Y160_C161Y] reaches 0.6 or more?
Ans. Y

---

biological target: Fes (UniProt P07332); test: phosphorylation enrichment, bacterial display (enrichment ratio); higher = better substrate or ligand; peptides without Tyr show the background
Sequence (P07332 whole entry, looked up): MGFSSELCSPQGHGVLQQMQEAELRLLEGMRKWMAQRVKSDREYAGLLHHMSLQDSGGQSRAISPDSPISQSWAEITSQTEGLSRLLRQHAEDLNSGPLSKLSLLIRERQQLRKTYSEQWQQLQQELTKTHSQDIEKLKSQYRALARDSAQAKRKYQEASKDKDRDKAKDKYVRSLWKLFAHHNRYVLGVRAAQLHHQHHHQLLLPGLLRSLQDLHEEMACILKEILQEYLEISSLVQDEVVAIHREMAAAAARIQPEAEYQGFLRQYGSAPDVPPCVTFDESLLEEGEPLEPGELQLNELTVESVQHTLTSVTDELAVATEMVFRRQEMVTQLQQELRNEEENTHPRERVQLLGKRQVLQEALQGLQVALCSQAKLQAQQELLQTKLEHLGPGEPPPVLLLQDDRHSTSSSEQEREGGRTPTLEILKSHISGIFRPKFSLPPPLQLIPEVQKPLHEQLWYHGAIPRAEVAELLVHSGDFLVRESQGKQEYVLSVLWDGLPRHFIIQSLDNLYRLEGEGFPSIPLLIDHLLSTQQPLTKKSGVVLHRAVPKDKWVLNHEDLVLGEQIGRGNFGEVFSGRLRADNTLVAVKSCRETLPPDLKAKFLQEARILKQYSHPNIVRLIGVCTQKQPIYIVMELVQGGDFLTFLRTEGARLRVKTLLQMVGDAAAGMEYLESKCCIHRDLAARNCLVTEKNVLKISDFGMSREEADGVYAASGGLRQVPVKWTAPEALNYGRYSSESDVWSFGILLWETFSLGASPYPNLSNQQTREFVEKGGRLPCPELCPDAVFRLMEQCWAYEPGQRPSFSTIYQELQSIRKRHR
endpoint-name: phosphorylation enrichment

| macromolecule-sequence | endpoint-name | experimental-result |
| --- | --- | --- |
| ISSLRYKLLEE [TRPC6_Y896_E897K] | phosphorylation enrichment | 0.986 |
| FSQQTYFRVSN [ABCD1_Y180_YF] | phosphorylation enrichment | 0.723 |
| EEGNPYFSGAR [MCCC2_Y520_S523G_YF] | phosphorylation enrichment | 0.945 |
| LATINYPFEKG [NDUFS8_Y84_P79L] | phosphorylation enrichment | 0.914 |
| KIVATYRLCSE [DNAH3_Y1586] | phosphorylation enrichment | 1.28 |

Kindly review the next sequence as well.
Qu. So what phosphorylation enrichment did ESMLRYEVFGG [STOX1_Y607_YF] get with Fes (UniProt P07332)?
Ans. 0.993

---

phosphorylation enrichment values for the sequences below.
target: Jak2 (UniProt O60674); assay: phosphorylation enrichment, bacterial display (enrichment ratio); higher = better substrate or ligand; peptides without Tyr show the background
Sequence (O60674 whole entry, looked up): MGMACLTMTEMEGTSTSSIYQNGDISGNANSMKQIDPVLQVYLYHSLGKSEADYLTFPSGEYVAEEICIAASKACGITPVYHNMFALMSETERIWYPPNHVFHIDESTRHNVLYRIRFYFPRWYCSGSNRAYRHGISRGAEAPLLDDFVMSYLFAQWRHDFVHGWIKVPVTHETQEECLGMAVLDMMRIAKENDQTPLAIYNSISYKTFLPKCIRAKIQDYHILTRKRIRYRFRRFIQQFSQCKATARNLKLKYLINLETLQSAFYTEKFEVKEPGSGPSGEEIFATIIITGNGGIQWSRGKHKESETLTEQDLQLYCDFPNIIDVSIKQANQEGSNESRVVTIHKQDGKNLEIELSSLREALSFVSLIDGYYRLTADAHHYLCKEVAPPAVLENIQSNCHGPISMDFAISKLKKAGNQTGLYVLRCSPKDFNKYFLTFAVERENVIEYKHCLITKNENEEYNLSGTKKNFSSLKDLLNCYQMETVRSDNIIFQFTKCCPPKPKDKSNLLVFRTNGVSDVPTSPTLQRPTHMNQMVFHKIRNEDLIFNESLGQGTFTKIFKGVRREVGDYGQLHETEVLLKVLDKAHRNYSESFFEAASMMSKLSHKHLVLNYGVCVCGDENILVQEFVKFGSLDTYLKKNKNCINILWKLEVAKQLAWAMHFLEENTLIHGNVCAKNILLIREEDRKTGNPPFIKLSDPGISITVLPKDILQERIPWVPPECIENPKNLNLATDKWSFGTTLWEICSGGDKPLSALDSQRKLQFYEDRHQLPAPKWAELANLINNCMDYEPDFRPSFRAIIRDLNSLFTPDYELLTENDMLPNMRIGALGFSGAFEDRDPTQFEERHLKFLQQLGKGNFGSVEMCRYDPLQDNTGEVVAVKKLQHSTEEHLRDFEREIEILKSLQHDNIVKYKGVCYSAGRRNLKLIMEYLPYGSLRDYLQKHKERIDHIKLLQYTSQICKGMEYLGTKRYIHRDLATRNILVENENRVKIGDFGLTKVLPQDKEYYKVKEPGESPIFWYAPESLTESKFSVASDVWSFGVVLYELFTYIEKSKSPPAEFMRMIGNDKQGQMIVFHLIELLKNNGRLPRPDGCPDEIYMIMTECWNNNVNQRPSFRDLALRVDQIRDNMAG
Output spec: single numeric token, no unit.

# annotated cases, reported phosphorylation enrichment shown
| macromolecule-sequence | endpoint-name | experimental-result |
| --- | --- | --- |
| KPPFSYNALIR [FOXG1_Y186_M191R] | phosphorylation enrichment | 0.618 |
| WQLEIYRASRP [ERCC4_Y594_R589W] | phosphorylation enrichment | 0.911 |
| AKLNIYKRKVE [VWA3B_Y918] | phosphorylation enrichment | 0.603 |
| KDKLPYLYDDP [GPX2_Y125_P126L] | phosphorylation enrichment | 0.857 |
| TRSFKYLLLSM [NF1_Y491_YF] | phosphorylation enrichment | 0.977 |
| QRKPSYNQLPS [BRCA2_Y71_A75P] | phosphorylation enrichment | 0.72 |
| GHNDVYILEHV [GRIN2A_Y1423_S1425L] | phosphorylation enrichment | 0.668 |
| TEALYYTDDPA [ADPRS_Y75_T79P] | phosphorylation enrichment | 1.06 |
| KDHPDYKFQPR [SOX10_Y171_YF] | phosphorylation enrichment | 0.566 |
| RGDCMYAPLLG [AR_Y269] | phosphorylation enrichment | 0.743 |

Qu. So what phosphorylation enrichment did TEDPEYDVQSK [PTCHD3_Y335] get with Jak2 (UniProt O60674)?
Ans. 0.936

Qu. So what phosphorylation enrichment did TYTVSYLPDMS [FLNC_Y1602] get with Jak2 (UniProt O60674)?
Ans. 0.903

Qu. So what phosphorylation enrichment did QLQQAYQEAFE [YWHAZ_Y149_S145L] get with Jak2 (UniProt O60674)?
Ans. 1.77

Qu. So what phosphorylation enrichment did VEKGSYSALRA [ABCC2_Y845_L849R] get with Jak2 (UniProt O60674)?
Ans. 0.551

Qu. So what phosphorylation enrichment did LPEVSYVKAID [GLRA1_Y307_K304E] get with Jak2 (UniProt O60674)?
Ans. 0.44

Qu. So what phosphorylation enrichment did NSRYTCKLEVK [USH2A_Y3747_Y3747C] get with Jak2 (UniProt O60674)?
Ans. 1.19

Qu. So what phosphorylation enrichment did LNCDRYSVGLL [PDE6A_Y275] get with Jak2 (UniProt O60674)?
Ans. 1.2

Qu. So what phosphorylation enrichment did ATAKGYEPDAS [OTC_Y223_P220A] get with Jak2 (UniProt O60674)?
Ans. 0.684

Qu. So what phosphorylation enrichment did GDKENYGLPQP [BUB1_Y538_N534D] get with Jak2 (UniProt O60674)?
Ans. 0.715
